# AC50 cell viability per record follows
Test system: HCT116;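 further: HCT116 colorectal carcinoma cells screened at five concentrations per compound, luminescent viability scaled between DMSO wells and empty wells on each plate, curves fitted per compound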
Assay: AC50 cell viability (CellTiter-Glo); higher = less potent
Details: 48 h

Some compounds with known AC50 cell viability results, for comparison:
CC/C(=C(/CC)c1ccc(O)cc1)c1ccc(O)cc1	18.6 µM
C[C@H]([C@H]1C\C(=C(CO)/C(=O)O1)C)[C@H]2CC[C@H]3[C@@H]4C[C@H]5O[C@]56[C@@H](O)\C=C/C(=O)[C@]6(C)[C@H]4CC[C@]23C	1.66 µM
C[N]1C=C(C2=CC=CC=C12)\C3=C(\C(=O)NC3=O)C4=C[N](C5CCN(CC5)CC6=NC=CC=C6)C7=C4C=CC=C7	14.8 µM

Req: State its AC50 cell viability for this compound: CN1CC[C@H]([C@@H]1CO)C2=C3OC(=C/C(=O)C3=C(O)C=C2O)\C4=C(Cl)C=C(C=C4)C(F)(F)F
Resp: 7.42 µM

Req: State its AC50 cell viability for this compound: COc1cc(OC)cc(N2CCN(C(=O)Nc3nc4cc(F)ccc4nc3OC)CC2)c1 [RX-5902 (SUPINOXIN)]
Resp: 2.63 µM

Req: State its AC50 cell viability for this compound: Cc1ccc(-n2c(C)cc(-c3nnc4n3CCCCC4)c2C)cc1
Resp: 20.9 µM

Req: State its AC50 cell viability for this compound: N#Cc1cc2cc(CN3CCC(Nc4ncnc5sc(CC(F)(F)F)cc45)CC3)c(O)cc2n1Cc1cn[nH]c1
Resp: 13.2 µM

Req: State its AC50 cell viability for this compound: OC(c1cc(C(F)(F)F)nc2c(C(F)(F)F)cccc12)C1CCCCN1 (stereo unspecified)
Resp: 20.9 µM

Req: State its AC50 cell viability for this compound: CC(C)(NC(=O)O[C@@H]1CN2CCC1CC2)c1csc(-c2ccc(F)cc2)n1
Resp: 18.6 µM

Req: State its AC50 cell viability for this compound: Cc1cc(Nc2cc(N3CCN(C)CC3)nc(/C=C/c3ccccc3)n2)n[nH]1
Resp: 5.9 µM

Req: State its AC50 cell viability for this compound: CCC[S+]([O-])c1ccc2[nH]c(NC(=O)OC)nc2c1 (stereo unspecified) [Albendazole oxide]
Resp: 13.2 µM

Req: State its AC50 cell viability for this compound: COC(=O)c1ccc([C@H]2c3[nH]c4ccccc4c3C[C@H](C(=O)OC)N2C(=O)CCl)cc1
Resp: 11.8 µM

Req: State its AC50 cell viability for this compound: COC1CC(C(=O)c2ccc3c(N)ncc(-c4ccc(-c5cnn(C)c5)cc4)c3n2)C1 (stereo unspecified)
Resp: 5.25 µM

Sourced from the supplement of paper PMC10290057
